- protocol: A CellTox Green Cytotoxicity Assay to monitor cytotoxicity in HEK293 cells - 24 hour (AID 1224875); further: nearly all actives have a fitted effect of over 45% in size
- conditionInfo: CellTox Green fluorescence; series mostly up to 76.8 µM
Inconclusive results are not listed. The source made the active and inactive calls. The call rests on the fitted dose curve; in most records, active means well fitted activation curve with a large enough effect in the repeat runs; inconclusive means weak or mixed curves; inactive means flat fitted curve, though single readings scatter.
Write down the outcome that applies. Available outcomes: class 1 = active, class 0 = inactive

Please review the entries below; each comes with its answer.
>>> df
                                   compound  classification
0                            CSc1ccc(O)cc1C         class 0
1     Nc1ccc2c(S(=O)(=O)O)cccc2c1S(=O)(=O)O         class 0
2          c1ccc2cc3c4ccccc4c4ccccc4c3cc2c1         class 0
3  CCCCCCCCCC[N+](C)(CCCCCCCCCC)CCC[Si](OC)(OC)OC         class 1
4    C=CC(=O)OCC(Br)CBr (centres undefined)         class 0
5  C=C1CC[C@H]2O[C@]2(C)CC[C@@H]2[C@@H]1CC2(C)C         class 0
6             COC(=O)c1ccc([N+](=O)[O-])cc1         class 0
7              Nc1cc([N+](=O)[O-])cc(Cl)c1O         class 0

Task: # outcome recorded in this test, key = `Cc1ccc2n[nH]nc2c1`
Result: class 0

Task: # outcome recorded in this test, key = `Cc1ccc(C=O)cc1`
Result: class 0

Task: # outcome recorded in this test, key = S=C1NC=NC2N=CNC12 (centres undefined)
Result: class 0

Task: # outcome recorded in this test, key = `CC/C=C\C/C=C\C/C=C\CCCCCCCC(=O)OC`
Result: class 0

Task: # outcome recorded in this test, key = C=C(C)C1CCC(C)CC1O (centres undefined)
Result: class 0

Task: # outcome recorded in this test, key = `Nc1ccc(Cl)c([N+](=O)[O-])c1`
Result: class 0

====

- protocol: qHTS assay to identify small molecule agonists of the estrogen related receptor signaling pathway with the pleiotropic PPARgamma coactivator (PGC) (AID 1224823)
- conditionInfo: ERR/PGC reporter cell line, luciferase agonist mode; series mostly up to 46.1 µM
- Description: National Center for Advancing Translational Sciences [NCATS] NIH Chemical Genomics Center [NCGC] U.S. Environmental Protection Agency [EPA] National Institutes of Environmental Health Sciences [NIEHS] National Toxicology Program [NTP] […] The PGC/ERR cells were dispensed at 2,000 cells/5 ul/well in 1536-well white plates using a Multidrop dispenser. […] After 30 min incubation at room temperature, the luminescence intensity in the plates was measured using a ViewLux plate reader.
Results filed as inconclusive are left out. The source made the active and inactive calls. Calls come from the whole dose curve; as a rule, active = well fitted activation curve with a large enough effect in the repeat runs; inconclusive = weak or mixed curves; inactive = no such curve, though single readings can be large or run the other way.
Write down the outcome that applies. Available outcomes: 1 (yes) = active, 0 (no) = inactive

Please review the entries below; each comes with its answer.
In [3]: df
Out[3]:
                                   compound  classification
0         O=C1/C(=C/c2ccsc2)CC/C1=C\c1cccs1         1 (yes)
1  Brc1cc2c(cc1[C@H]1Nc3ccccc3[C@H]3C=CC[C@H]31)OCO2          0 (no)
2    COCc1nc2c([nH]1)c(=O)n(C)c(=O)n2CC(C)C          0 (no)

Task: # outcome recorded in this test, key = `Oc1cc(O)cc(/C=C/c2ccc(O)c(O)c2)c1`
Result: 1 (yes)

Task: # outcome recorded in this test, key = `O=C(O)C1=CCCNC1`
Result: 0 (no)

Task: # outcome recorded in this test, key = `NC(=O)c1cc[n+](CC2=C(C(=O)O)N3C(=O)[C@@H](NC(=O)[C@@H](c4ccccc4)S(=O)(=O)[O-])[C@H]3SC2)cc1`
Result: 0 (no)

Task: # outcome recorded in this test, key = CN1C2CCC1CC(OC(=O)C(O)c1ccccc1)C2 (stereo not drawn)
Result: 0 (no)

Task: # outcome recorded in this test, key = NCC(O)(CS(=O)(=O)O)c1ccc(Cl)cc1 (stereo not drawn)
Result: 0 (no)

Where do these numbers come from? They come from PubChem BioAssay (Tox21).
